Listed compounds paired with reported inhibition at 10 µM
Target: Histamine H3 (h) (Homo sapiens)
Construct: expressed in transfected cells; host or cells: CHO cells
Sequence (Q9Y5N1 whole entry): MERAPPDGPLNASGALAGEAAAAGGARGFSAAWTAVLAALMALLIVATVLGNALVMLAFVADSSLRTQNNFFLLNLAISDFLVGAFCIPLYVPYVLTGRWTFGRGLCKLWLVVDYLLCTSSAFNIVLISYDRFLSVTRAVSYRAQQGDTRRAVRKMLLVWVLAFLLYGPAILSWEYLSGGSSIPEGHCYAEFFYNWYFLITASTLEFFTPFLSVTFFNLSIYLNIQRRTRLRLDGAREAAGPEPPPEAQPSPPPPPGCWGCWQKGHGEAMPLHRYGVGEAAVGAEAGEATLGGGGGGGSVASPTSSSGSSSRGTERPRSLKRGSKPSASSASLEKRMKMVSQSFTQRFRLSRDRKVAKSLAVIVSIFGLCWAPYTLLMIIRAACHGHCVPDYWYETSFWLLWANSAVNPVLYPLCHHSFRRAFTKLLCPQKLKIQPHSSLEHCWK
Experiment: Binding H3 (h) (ag)
Details: read-out: % Inhibition of Control Specific Binding @ 10 μM
testReadout: inhibition at 10 µM (%)

{"columns": ["compoundStructure", "testReadout", "unitSpec", "recordedValue"],
 "data": [
  ["CC1(C)C(=O)N(c2ccc(C#N)c(C(F)(F)F)c2)C(=S)N1c1ccc(C(N)=O)c(F)c1", "inhibition at 10 µM", "%", -2],
  ["CNC(=O)c1ccc(N2C(=O)N(c3ccc(C#N)c(C(F)(F)F)c3)C(=O)C2(C)C)cc1F", "inhibition at 10 µM", "%", -4],
  ["CC1(C)C(=O)N(c2ccc(C#N)c(C(F)(F)F)c2)C(=O)N1c1ccc(C(N)=O)c(F)c1", "inhibition at 10 µM", "%", -13],
  ["CC1(C)C(=O)N(c2ccc(C#N)c(C(F)(F)F)c2)C(=S)N1c1ccc(C(=O)O)c(F)c1", "inhibition at 10 µM", "%", -3]
]}

* * *

Each entry below carries its reported % Inhibition of Control Specific Binding @ 10 μM.
System: σ (ns)
Experiment: Binding σ (ns) (ag)
Set-up: species or system rat
Procedure: Radioligand binding assay methods utilized to measure the activity of compounds of the invention will be familiar to those skilled in the art. […] Analysis and Expression of Results: Compounds of the invention were tested in the biochemical assays and percent inhibition of specific binding was determined. The specific ligand binding to the receptors is defined as the difference between the total binding and the nonspecific binding determined in the presence of an excess of unlabelled ligand. […]
testReadout: % Inhibition of Control Specific Binding @ 10 μM (%)

{"columns": ["compoundStructure", "recordedValue"],
 "data": [
  ["CC1(C)C(=O)N(c2ccc(C#N)c(C(F)(F)F)c2)C(=O)N1c1ccc(C(N)=O)c(F)c1", 34],
  ["CC1(C)C(=O)N(c2ccc(C#N)c(C(F)(F)F)c2)C(=S)N1c1ccc(C(=O)O)c(F)c1", 20],
  ["CNC(=O)c1ccc(N2C(=O)N(c3ccc(C#N)c(C(F)(F)F)c3)C(=O)C2(C)C)cc1F", 50],
  ["CC1(C)C(=O)N(c2ccc(C#N)c(C(F)(F)F)c2)C(=S)N1c1ccc(C(N)=O)c(F)c1", 39]
]}

* * *

Target: Dopamine D2S (h) (Homo sapiens, UniProt P14416)
Construct: expressed in transfected cells; host or cells: HEK-293 cells
Sequence (P14416 1-414 isoform P14416-2): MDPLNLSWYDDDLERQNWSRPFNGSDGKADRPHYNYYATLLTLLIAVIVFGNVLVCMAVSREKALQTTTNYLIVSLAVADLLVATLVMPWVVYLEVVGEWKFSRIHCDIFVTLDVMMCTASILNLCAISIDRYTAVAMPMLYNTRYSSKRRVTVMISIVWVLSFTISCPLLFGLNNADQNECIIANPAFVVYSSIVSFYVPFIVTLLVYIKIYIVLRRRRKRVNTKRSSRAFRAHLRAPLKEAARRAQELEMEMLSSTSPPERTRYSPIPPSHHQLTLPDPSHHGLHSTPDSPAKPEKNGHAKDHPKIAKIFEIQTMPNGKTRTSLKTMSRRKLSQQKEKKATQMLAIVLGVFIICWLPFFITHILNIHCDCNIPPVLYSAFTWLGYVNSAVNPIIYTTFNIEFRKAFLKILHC
Assay: Binding D2S (h) (aa)
Conditions: read-out: % Inhibition of Control Specific Binding @ 10 μM
Protocol: Radioligand binding assay methods utilized to measure the activity of compounds of the invention will be familiar to those skilled in the art. […] Analysis and Expression of Results: Compounds of the invention were tested in the biochemical assays and percent inhibition of specific binding was determined. The specific ligand binding to the receptors is defined as the difference between the total binding and the nonspecific binding determined in the presence of an excess of unlabelled ligand. […]

{"columns": ["compound", "inhibition at 10 µM [%]"],
 "data": [
  ["CC1(C)C(=O)N(c2ccc(C#N)c(C(F)(F)F)c2)C(=S)N1c1ccc(C(N)=O)c(F)c1 [(MII)]", -8],
  ["CC1(C)C(=O)N(c2ccc(C#N)c(C(F)(F)F)c2)C(=S)N1c1ccc(C(=O)O)c(F)c1 [(MI)]", -16],
  ["CNC(=O)c1ccc(N2C(=O)N(c3ccc(C#N)c(C(F)(F)F)c3)C(=O)C2(C)C)cc1F [(MIV)]", -17],
  ["CC1(C)C(=O)N(c2ccc(C#N)c(C(F)(F)F)c2)C(=O)N1c1ccc(C(N)=O)c(F)c1 [(MIII)]", -22]
]}

* * *

Target: Dopamine D3 (h) (Homo sapiens, UniProt P35462)
Construct: expressed in transfected cells; host or cells: CHO cells
Sequence (P35462 whole entry): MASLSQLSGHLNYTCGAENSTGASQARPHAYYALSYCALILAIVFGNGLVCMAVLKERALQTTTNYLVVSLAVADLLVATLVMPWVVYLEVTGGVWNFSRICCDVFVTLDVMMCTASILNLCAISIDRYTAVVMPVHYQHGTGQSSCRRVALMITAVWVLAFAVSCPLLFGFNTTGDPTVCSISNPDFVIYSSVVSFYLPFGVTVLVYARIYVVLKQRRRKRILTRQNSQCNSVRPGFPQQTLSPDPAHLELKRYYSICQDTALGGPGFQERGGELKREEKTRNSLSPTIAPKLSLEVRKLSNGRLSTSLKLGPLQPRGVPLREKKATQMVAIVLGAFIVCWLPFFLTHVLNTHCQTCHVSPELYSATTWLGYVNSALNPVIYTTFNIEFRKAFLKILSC
Test: Binding D3 (h) (aa)
Settings: read-out: % Inhibition of Control Specific Binding @ 10 μM

{"columns": ["compoundStructure", "inhibition at 10 µM [%]"],
 "data": [
  ["CNC(=O)c1ccc(N2C(=O)N(c3ccc(C#N)c(C(F)(F)F)c3)C(=O)C2(C)C)cc1F", 7],
  ["CC1(C)C(=O)N(c2ccc(C#N)c(C(F)(F)F)c2)C(=O)N1c1ccc(C(N)=O)c(F)c1", 0],
  ["CC1(C)C(=O)N(c2ccc(C#N)c(C(F)(F)F)c2)C(=S)N1c1ccc(C(=O)O)c(F)c1", 7],
  ["CC1(C)C(=O)N(c2ccc(C#N)c(C(F)(F)F)c2)C(=S)N1c1ccc(C(N)=O)c(F)c1", 11]
]}

* * *

Target: choline transporter (CHT1) (h) (Homo sapiens, UniProt Q9GZV3)
Construct: expressed in transfected cells; host or cells: CHO cells
Sequence (Q9GZV3 whole entry): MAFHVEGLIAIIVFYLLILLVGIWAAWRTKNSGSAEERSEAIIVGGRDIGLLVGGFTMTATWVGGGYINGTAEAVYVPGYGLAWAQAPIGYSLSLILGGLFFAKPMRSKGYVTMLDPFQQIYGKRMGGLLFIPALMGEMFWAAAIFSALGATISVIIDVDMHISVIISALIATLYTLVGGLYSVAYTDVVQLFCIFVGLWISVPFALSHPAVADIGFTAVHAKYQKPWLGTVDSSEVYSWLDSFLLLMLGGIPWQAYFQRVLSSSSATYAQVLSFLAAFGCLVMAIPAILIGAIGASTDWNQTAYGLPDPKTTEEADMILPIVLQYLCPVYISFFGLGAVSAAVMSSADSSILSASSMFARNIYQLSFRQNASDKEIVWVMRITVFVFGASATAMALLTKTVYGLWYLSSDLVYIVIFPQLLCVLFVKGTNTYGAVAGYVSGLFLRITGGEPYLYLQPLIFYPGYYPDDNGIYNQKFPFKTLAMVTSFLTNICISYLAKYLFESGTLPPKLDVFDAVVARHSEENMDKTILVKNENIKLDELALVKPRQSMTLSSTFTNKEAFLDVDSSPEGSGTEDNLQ
Experiment: Binding choline transporter (CHT1) (h) (aa)
Conditions: read-out: % Inhibition of Control Specific Binding @ 10 μM
We begin with a simple list: items and their reported inhibition at 10 µM.
testReadout: inhibition at 10 µM (%)

{"columns": ["compound", "testReadout", "recordedValue"],
 "data": [
  ["CNC(=O)c1ccc(N2C(=O)N(c3ccc(C#N)c(C(F)(F)F)c3)C(=O)C2(C)C)cc1F [(MIV)]", "inhibition at 10 µM", 10],
  ["CC1(C)C(=O)N(c2ccc(C#N)c(C(F)(F)F)c2)C(=O)N1c1ccc(C(N)=O)c(F)c1 [(MIII)]", "inhibition at 10 µM", -13],
  ["CC1(C)C(=O)N(c2ccc(C#N)c(C(F)(F)F)c2)C(=S)N1c1ccc(C(=O)O)c(F)c1 [(MI)]", "inhibition at 10 µM", -16],
  ["CC1(C)C(=O)N(c2ccc(C#N)c(C(F)(F)F)c2)C(=S)N1c1ccc(C(N)=O)c(F)c1 [(MII)]", "inhibition at 10 µM", -22]
]}

* * *

Target: Thyrotropin Releasing Hormone TRH1 (h) (Homo sapiens, UniProt P34981)
Construct: expressed in transfected cells; host or cells: CHO cells
Sequence (P34981 1-398): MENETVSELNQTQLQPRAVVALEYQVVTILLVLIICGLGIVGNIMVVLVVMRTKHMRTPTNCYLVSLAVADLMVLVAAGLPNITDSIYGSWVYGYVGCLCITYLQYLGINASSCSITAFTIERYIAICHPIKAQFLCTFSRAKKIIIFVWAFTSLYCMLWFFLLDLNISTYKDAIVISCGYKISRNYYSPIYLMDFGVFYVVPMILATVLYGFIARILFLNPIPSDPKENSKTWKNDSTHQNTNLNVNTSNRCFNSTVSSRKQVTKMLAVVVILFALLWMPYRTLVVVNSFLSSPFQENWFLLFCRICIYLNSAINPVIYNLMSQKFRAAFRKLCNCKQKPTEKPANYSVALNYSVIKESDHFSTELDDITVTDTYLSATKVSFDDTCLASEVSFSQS
Experiment: Binding TRH1 (h) (ag)
Conditions: read-out: % Inhibition of Control Specific Binding @ 10 μM

{"columns": ["compoundStructure", "inhibition at 10 µM, %"],
 "data": [
  ["CC1(C)C(=O)N(c2ccc(C#N)c(C(F)(F)F)c2)C(=S)N1c1ccc(C(=O)O)c(F)c1", 18],
  ["CNC(=O)c1ccc(N2C(=O)N(c3ccc(C#N)c(C(F)(F)F)c3)C(=O)C2(C)C)cc1F", 0],
  ["CC1(C)C(=O)N(c2ccc(C#N)c(C(F)(F)F)c2)C(=S)N1c1ccc(C(N)=O)c(F)c1", -4],
  ["CC1(C)C(=O)N(c2ccc(C#N)c(C(F)(F)F)c2)C(=O)N1c1ccc(C(N)=O)c(F)c1", -5]
]}

* * *

Recorded measurements of % Inhibition of Control Specific Binding @ 10 μM, one per entry
Test system: opioid (ns)
Assay: Binding opioid (ns) (aa)
Design: species or system rat
Description: Radioligand binding assay methods utilized to measure the activity of compounds of the invention will be familiar to those skilled in the art. […] Analysis and Expression of Results: Compounds of the invention were tested in the biochemical assays and percent inhibition of specific binding was determined. The specific ligand binding to the receptors is defined as the difference between the total binding and the nonspecific binding determined in the presence of an excess of unlabelled ligand. […]
testReadout: % Inhibition of Control Specific Binding @ 10 μM (%)

{"columns": ["molecule", "unitSpec", "recordedValue"],
 "data": [
  ["CNC(=O)c1ccc(N2C(=O)N(c3ccc(C#N)c(C(F)(F)F)c3)C(=O)C2(C)C)cc1F [(MIV)]", "%", "−10"],
  ["CC1(C)C(=O)N(c2ccc(C#N)c(C(F)(F)F)c2)C(=O)N1c1ccc(C(N)=O)c(F)c1 [(MIII)]", "%", "−15"],
  ["CC1(C)C(=O)N(c2ccc(C#N)c(C(F)(F)F)c2)C(=S)N1c1ccc(C(N)=O)c(F)c1 [(MII)]", "%", "−14"],
  ["CC1(C)C(=O)N(c2ccc(C#N)c(C(F)(F)F)c2)C(=S)N1c1ccc(C(=O)O)c(F)c1 [(MI)]", "%", "−6"]
]}

Attribution: patent US8524755B2
